Origin of the recorded values: patent US20090017017A1

Target: T1, Rhesus D antigen (human, UniProt Q02161 2-417)
T1 construct: whole, on cells; Presented on RhD(+) erythrocytes; also called RhD; RhD antigen
T1 sequence (looked up): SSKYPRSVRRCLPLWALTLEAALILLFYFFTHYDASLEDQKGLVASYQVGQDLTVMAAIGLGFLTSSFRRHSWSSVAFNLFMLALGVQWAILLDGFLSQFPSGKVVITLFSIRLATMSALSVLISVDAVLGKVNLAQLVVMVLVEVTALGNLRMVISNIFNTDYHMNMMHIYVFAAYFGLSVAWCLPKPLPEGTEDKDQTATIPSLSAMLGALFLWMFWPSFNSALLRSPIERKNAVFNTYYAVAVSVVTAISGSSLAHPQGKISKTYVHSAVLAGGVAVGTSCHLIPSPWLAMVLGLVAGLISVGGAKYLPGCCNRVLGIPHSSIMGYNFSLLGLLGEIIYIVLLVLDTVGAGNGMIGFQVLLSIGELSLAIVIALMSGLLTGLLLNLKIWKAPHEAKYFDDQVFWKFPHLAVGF
Assay: agglutination assay, Fab periplasmic extract on RhD(+)/RhD(-) RBC mix
PROPERTY_LABEL: binding result

INSERT INTO measurements (binder, endpoint_result) VALUES
  ('RhD158.119B06 (Fab, V domains shown, Tested as Fab in E. coli periplasmic extract (VH on human gamma 1 CH1, vector Em351)) VH: EVQLVETGGGVVQPGRSLRLSCAASGFSFSNFGFHWIRQSPGKGLEWVAVIWYDGSNRFYADSVKGRFTISRDSSKNMLFLQMDSLRAEDTAVYYCAREISMKVVIRRHYVMDVWGHGTTVTVSS VL: DIQMTQSPSPLSASVGDRVSITCRASRGISNSLAWYQQKPGKVPKLLIYAASTLQSGVPSRFSGGGSGTDFTLTISSLQPEDVATYYCHTYNSAPFAFGPGTKVDIKR', 'binds'),
  ('RhD193.126G05 (Fab, V domains shown, Tested as Fab in E. coli periplasmic extract (VH on human gamma 1 CH1, vector Em351)) VH: QVQLVETGGGVVQPGRSLRLSCAASGFTFSSYGMHWVRQAPGKGLEWVAVIWYDGSNKDYADPVKGRFTISRDNSKNTLYLQMNSLRAEDTAVYYCAREIASRGYSRYLYYFDSWGQGTLVTVSS VL: DIQMTQSPSSLSASVGDRVTITCRASQSISSYLNWYQQNPGKAPKLLIYGASNLQSGVPSRFSGSGSGTDFTLTISSLQPEDFATYYCQQSYSTLALTFGGGTKVEIKR', 'binds'),
  ('RhD244.158B10 (Fab, V domains shown, Tested as Fab in E. coli periplasmic extract (VH on human gamma 1 CH1, vector Em351)) VH: QVQLVESGGGVVQPGRSLRLSCAASGFSFSSYGMHWVRQAPGKGLEWVAIIWYDGSNKLYADSVKGRFTISRDNSRNTLYLQMSSVRAEDTAVYYCARDSVRGVSRWGTQKYYAMDVWGQGTTVTVSS VL: DIQMTQSPSSLSASVGDRVIITCRASQSVNRYLNWYQQKPGKAPKLLIYAASSLQGGVPSRFSGSGSGTDFTLTISSLQREDFATYYCQQSYRTRTFGQGTKVEIKR', 'binds');
